Sourced from patent US20250368649A1

- SYSTEM UNDER TEST: KRas G13D (Homo sapiens, UniProt P01116, G13D)
- Sequence (P01116 1-169 isoform P01116-2 G13D): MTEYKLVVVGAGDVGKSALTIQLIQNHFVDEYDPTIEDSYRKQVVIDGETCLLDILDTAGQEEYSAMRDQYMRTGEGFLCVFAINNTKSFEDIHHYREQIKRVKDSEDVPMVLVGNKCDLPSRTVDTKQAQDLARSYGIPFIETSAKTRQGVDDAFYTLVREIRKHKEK
- Type: binding
- TEST CONTEXT: single point, 10 nM compound, read-out: Binding to KRas (% inhibition at 10 nM) G13D
READOUT TYPE: inhibition at 0.01 µM (%)
// note: answer is a bare numeric in %

For orientation, consider the following solved cases.
// map `CCc1c(F)ccc2cc(O)cc(N3CCc4c(nc(OC[C@@]56CCCN5C[C@H](F)C6)nc4N4CCCn5nc(C(=O)N(C)C)nc5C4)C3)c12` to recorded inhibition at 0.01 µM (system: KRas G13D (Homo sapiens, UniProt P01116, G13D))
100

Next up: CCc1c(F)ccc2cc(O)cc(N3CCc4c(nc(OC[C@@]56CCCN5C[C@H](F)C6)nc4N4CCCC5(CC(=O)NC5=O)C4)C3)c12 (stereo partly shown)
82

Next up: `CCc1c(F)ccc2cc(O)cc(N3CCc4c(nc(OC[C@@]56CCCN5C[C@H](F)C6)nc4N4CCCn5nc(C(=O)OC)cc5C4)C3)c12`
75

Could you now look at the following compound, please?
// map `CCc1c(F)ccc2cc(O)cc(N3CCc4c(nc(OC[C@@]56CCCN5C[C@H](F)C6)nc4N4CCCn5nc(C(=O)NC(C)C)c(C)c5C4)C3)c12` to recorded inhibition at 0.01 µM (system: KRas G13D (Homo sapiens, UniProt P01116, G13D))
87

* * *

- SYSTEM UNDER TEST: KRas Q61H (Homo sapiens, UniProt P01116, Q61H)
- Sequence (P01116 1-169 isoform P01116-2 Q61H): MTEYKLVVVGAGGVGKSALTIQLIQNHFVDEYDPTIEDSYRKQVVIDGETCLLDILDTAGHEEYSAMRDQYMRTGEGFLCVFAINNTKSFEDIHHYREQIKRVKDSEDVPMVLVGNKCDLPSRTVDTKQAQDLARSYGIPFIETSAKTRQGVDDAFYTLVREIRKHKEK
- ASSAY OVERVIEW: KRas binding assay (TR-FRET displacement), KRas Q61H
- TEST CONTEXT: single point, 10 nM compound
In this section, each of the compounds is paired with its reported inhibition at 0.01 µM.
// note: answer is a bare numeric in %

For orientation, consider the following solved cases.
Look up inhibition at 0.01 µM for this compound: `CCc1c(F)ccc2cc(O)cc(N3CCc4c(nc(OC[C@@]56CCCN5C[C@H](F)C6)nc4N4CCCn5nnc(Br)c5C4)C3)c12`
89

Next up: CCc1c(F)ccc2cc(O)cc(N3CCc4c(nc(OC[C@@]56CCCN5C[C@H](F)C6)nc4N4CCCC5(CC(=O)NC5=O)C4)C3)c12 (stereo partly drawn)
90

Next:
Look up inhibition at 0.01 µM for this compound: `CCc1c(F)ccc2cc(O)cc(N3CCc4c(nc(OC[C@@]56CCCN5C[C@H](F)C6)nc4N4CCCn5nc(C(=O)N6C7CCC6CC7)cc5C4)C3)c12`
97

* * *

In this section, each of the compounds is paired with its reported IC50.
- SYSTEM UNDER TEST: KRas G12R (Homo sapiens, UniProt P01116, G12R)
- Sequence (P01116 1-169 isoform P01116-2 G12R): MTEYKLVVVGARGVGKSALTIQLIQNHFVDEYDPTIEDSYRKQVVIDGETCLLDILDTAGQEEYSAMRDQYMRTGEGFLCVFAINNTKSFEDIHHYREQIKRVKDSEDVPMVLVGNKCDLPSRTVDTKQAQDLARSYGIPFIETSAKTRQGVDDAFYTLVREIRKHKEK
- ASSAY OVERVIEW: biochemical
- TEST CONTEXT: Binding to KRas (IC50 nM) G12R, TR-FRET displacement, KRas G12R

Look up IC50 for this compound: `CCc1c(F)ccc2cc(O)cc(N3CCc4c(nc(OC[C@@]56CCCN5C[C@H](F)C6)nc4N4CCCn5nnc(Br)c5C4)C3)c12`
< 2 nM

Next:
Look up IC50 for this compound: `O=C1NC(=O)[C@]2(CCCN(c3nc(OC[C@@]45CCCN4C[C@H](F)C5)nc4c3CCN(c3cc(O)cc5ccc(F)c(Cl)c35)C4)C2)N1`
< 2 nM

Next up: `CCc1c(F)ccc2cc(O)cc(N3CCc4c(nc(OC[C@@]56CCCN5C[C@H](F)C6)nc4N4CCCn5ncc(CO)c5C4)C3)c12`
< 2 nM
